experimental.system: STK39 (human) (UniProt Q9UEW8)
experimental.protocol: radiometric filter-binding kinase assay, Kinase HotSpot
applied.conditions: compound 0.5 µM; ATP 10 µM

{"molecule": "O=C(CCCc1ccc(-c2ccccc2F)cc1)Nc1ccc(O)cc1", "experimental.system": "STK39 (human) (UniProt Q9UEW8)", "residual activity": "95.4%"}
{"molecule": "Cn1nc2c3c(cccc31)C(=O)c1ccccc1-2", "experimental.system": "STK39 (human) (UniProt Q9UEW8)", "residual activity": "101%"}
{"molecule": "COc1ccc(CNC(=O)Nc2ncc([N+](=O)[O-])s2)cc1", "experimental.system": "STK39 (human) (UniProt Q9UEW8)", "residual activity": "96.4%"}
{"molecule": "CN([C@@H](Cc1ccc(OS(=O)(=O)c2cccc3cnccc23)cc1)C(=O)N1CCN(c2ccccc2)CC1)S(=O)(=O)c1cccc2cnccc12", "experimental.system": "STK39 (human) (UniProt Q9UEW8)", "residual activity": "93.5%"}
{"molecule": "O=C1NC(=O)C(c2c[nH]c3ccccc23)=C1c1c[nH]c2ccccc12", "experimental.system": "STK39 (human) (UniProt Q9UEW8)", "residual activity": "93.6%"}
{"molecule": "O=C(O)/C=C/c1cc(Br)c(Br)c(Br)c1Br", "experimental.system": "STK39 (human) (UniProt Q9UEW8)", "residual activity": "97.9%"}
{"molecule": "CC(C)c1nn(-c2c(Cl)cccc2Cl)c2nc(Cc3ccc(OCCO)cc3)nc(O)c12", "experimental.system": "STK39 (human) (UniProt Q9UEW8)", "residual activity": "99.9%"}
{"molecule": "CC(C)[C@H](CO)Nc1nc(Nc2cc(N)cc(Cl)c2)c2ncn(C(C)C)c2n1", "experimental.system": "STK39 (human) (UniProt Q9UEW8)", "residual activity": "83.7%"}
{"molecule": "Nc1nnc2[nH]c3ccccc3nc1-2", "experimental.system": "STK39 (human) (UniProt Q9UEW8)", "residual activity": "116%"}
{"molecule": "O=C1Cc2c([nH]c3ccc(Br)cc23)-c2ccccc2N1", "experimental.system": "STK39 (human) (UniProt Q9UEW8)", "residual activity": "90.1%"}
{"molecule": "O=C1NC(=O)C(c2cn(CCCO)c3ncccc23)=C1c1cnccn1", "experimental.system": "STK39 (human) (UniProt Q9UEW8)", "residual activity": "111%"}
{"molecule": "CC(=O)O/N=C1\\C(=C2\\C(=O)Nc3cc(Br)ccc32)Nc2ccccc21", "experimental.system": "STK39 (human) (UniProt Q9UEW8)", "residual activity": "105%"}
{"molecule": "CN(C)C[C@H]1CCn2c(c(C3=C(c4cn(C)c5ccccc45)C(=O)NC3=O)c3ccccc32)C1", "experimental.system": "STK39 (human) (UniProt Q9UEW8)", "residual activity": "102%"}
{"molecule": "Cc1nc2cc3nc(-c4cccs4)cnc3cc2n1C", "experimental.system": "STK39 (human) (UniProt Q9UEW8)", "residual activity": "79.8%"}
{"molecule": "COc1cc2ncnc(N3CCN(C(=O)Nc4ccc(Oc5ccccc5)cc4)CC3)c2cc1OC", "experimental.system": "STK39 (human) (UniProt Q9UEW8)", "residual activity": "83.2%"}
{"molecule": "Nc1nccc(-c2c(-c3ccc(F)cc3)ncn2C2CCNCC2)n1", "experimental.system": "STK39 (human) (UniProt Q9UEW8)", "residual activity": "93.5%"}
{"molecule": "CCN(CC)CCCCN1c2ccccc2Oc2ccc(Cl)cc21", "experimental.system": "STK39 (human) (UniProt Q9UEW8)", "residual activity": "83.5%"}
{"molecule": "O=C1Nc2ccccc2/C1=C1\\Nc2ccccc2\\C1=N/O", "experimental.system": "STK39 (human) (UniProt Q9UEW8)", "residual activity": "90.4%"}
{"molecule": "O=C1Nc2ccccc2/C1=C1/Nc2ccccc2/C1=N\\OCCC(O)CO (stereo not drawn)", "experimental.system": "STK39 (human) (UniProt Q9UEW8)", "residual activity": "79.3%"}
{"molecule": "Cn1cnc2cc3c(Nc4cccc(Br)c4)ncnc3cc21", "experimental.system": "STK39 (human) (UniProt Q9UEW8)", "residual activity": "111%"}
{"molecule": "CCn1cnc2c(Nc3cccc(Cl)c3)nc(N[C@@H]3CCCC[C@@H]3N)nc21", "experimental.system": "STK39 (human) (UniProt Q9UEW8)", "residual activity": "106%"}
{"molecule": "COc1cc2ncc(-c3ccccc3)nc2cc1OC", "experimental.system": "STK39 (human) (UniProt Q9UEW8)", "residual activity": "88%"}
{"molecule": "Cn1sc(=O)n(Cc2ccccc2)c1=O", "experimental.system": "STK39 (human) (UniProt Q9UEW8)", "residual activity": "97.9%"}

Attribution: the kinase profiling compilation of Christmann-Franck et al. (2016)
